# Test system: MT2
# method.notes: Cytotoxicity against human MT2 cells infected with HIV1 harboring reverse transcriptase Y181C mutation by MTT assay
# Assay type: cell-based
Give CC50 for every item shown.
Dear colleague, please return just the value in µM, with no unit written.

INPUT: Report CC50 under test system MT2 for `Fc1cccc(F)c1Cc1cnc(Nc2ccc(-c3cccnc3)c(Cl)c2)o1` .
OUTPUT: 15

INPUT: State the measured CC50 (MT2) of `Fc1cccc(F)c1Cc1cnc(Nc2ccc(Oc3ccncc3)cc2)o1`
OUTPUT: 17

INPUT: Please indicate recorded CC50 of `Fc1cccc(F)c1Cc1cnc(Nc2ccc(Oc3ccncc3)c(Cl)c2)o1` measured with MT2.
OUTPUT: 17

INPUT: Enter measured CC50, system MT2, for the compound shown: `Fc1cccc(F)c1Cc1cnc(Nc2ccc(-c3ccncc3)c(Cl)c2)o1`
OUTPUT: 11

INPUT: Give CC50; test system MT2; compound `[O-][n+]1ccc(OCc2ccc(Nc3ncc(Cc4c(F)cccc4F)o3)cc2Cl)cc1`
OUTPUT: 2.7

###

# Test system: MT2
# method.notes: Cytotoxicity against human MT2 cells infected with HIV1 harboring reverse transcriptase K103N/Y181C mutation by MTT assay
# Type: cell-based
readout.type: CC50

INPUT: Hello, please tell me recorded CC50 for this one: `Fc1cccc(F)c1Cc1cnc(Nc2ccc(-c3cccnc3)c(Cl)c2)o1`
OUTPUT: 12.5 µM

INPUT: Read off the recorded CC50 for `[O-][n+]1ccc(OCc2ccc(Nc3ncc(Cc4c(F)cccc4F)o3)cc2Cl)cc1`
OUTPUT: 2.1 µM

INPUT: Report measured CC50; entry is `Fc1cccc(F)c1Cc1cnc(Nc2ccc(Oc3ccncc3)cc2)o1`
OUTPUT: 17 µM

INPUT: Name the recorded CC50 of the compound listed here: `O=C1Nc2ccc(Cl)cc2[C@@](C#CC2CC2)(C(F)(F)F)O1`
OUTPUT: > 0.1 µM

INPUT: Give a short answer stating reported CC50 for `Cc1cc(C#N)cc(C)c1Oc1nc(Nc2ccc(C#N)cc2)nc(N)c1Br` .
OUTPUT: > 0.1 µM

INPUT: Kindly indicate its recorded CC50. Item: `Fc1cccc(F)c1Cc1cnc(Nc2ccc(-c3ccncc3)c(Cl)c2)o1`
OUTPUT: 9.1 µM

INPUT: Provide measured CC50 value, entry: `Fc1cccc(F)c1Cc1cnc(Nc2ccc(Oc3ccncc3)c(Cl)c2)o1`
OUTPUT: 17 µM

###

Record form. Attribute: CC50. Fill in for each entry.
# Test system: MT2
# method.notes: Cytotoxicity against human MT2 cells by MTT assay
# Type: cell-based
# conditions.used: mt2
Give a bare numeral; the unit µM is implied.

INPUT: Return value of CC50 for input `O=c1ccn(CCOc2ccc(Nc3ncc(Cc4c(F)cccc4F)o3)cc2)c(=O)[nH]1` , no commentary.
OUTPUT: 73

INPUT: Look up and state reported CC50 for `Fc1cccc(F)c1Cc1cnc(Nc2ccc(-c3cccnc3)c(Cl)c2)o1`
OUTPUT: 8.9

INPUT: Give recorded CC50. `Fc1cccc(F)c1Cc1cnc(Nc2ccc(-c3ccncc3)c(Cl)c2)o1`
OUTPUT: 9.3

INPUT: Supply CC50 value. Item: `[O-][n+]1ccc(OCc2ccc(Nc3ncc(Cc4c(F)cccc4F)o3)cc2Cl)cc1`
OUTPUT: 1.7

INPUT: Determine its reported CC50: `Fc1cccc(F)c1Cc1cnc(Nc2ccc(CCOc3ccncc3)cc2)o1`
OUTPUT: 11

INPUT: Give CC50 for `COCc1ccc(Nc2ncc(Cc3c(F)cccc3F)o2)cc1`
OUTPUT: 32

INPUT: Read off the recorded CC50 for `Clc1cccc(Cl)c1Cc1nnc(Nc2ccc(COCc3ccccc3)cc2)o1`
OUTPUT: 84

INPUT: Provide CC50 value for the following compound: `Fc1cccc(F)c1Cc1cnc(Nc2ccc(Oc3ccncc3)cc2)o1`
OUTPUT: 21

INPUT: Find the measured CC50 of `Fc1cccc(F)c1Cc1cnc(Nc2ccc(Oc3cccnc3)cc2)o1` and report it.
OUTPUT: 22

INPUT: Fill in CC50 for record `OCc1ccc(Nc2ncc(Cc3c(F)cccc3F)o2)cc1Cl`
OUTPUT: 90

INPUT: Given `Clc1cccc(Cl)c1Cc1nnc(Nc2ccc(COCc3ccncc3)cc2)o1` , respond with its CC50.
OUTPUT: 81

INPUT: For the compound `Clc1cccc(Cl)c1Cc1nnc(Nc2ccc(COCc3ccco3)cc2)o1` , give its reported CC50.
OUTPUT: 12

INPUT: Identify CC50 associated with the compound `Fc1cccc(F)c1Cc1cnc(Nc2ccc(Oc3cccnc3)c(Br)c2)o1`
OUTPUT: 7.5

// data source = ChEMBL document CHEMBL1156168
